B1: glmS ribozyme (parent)
chain: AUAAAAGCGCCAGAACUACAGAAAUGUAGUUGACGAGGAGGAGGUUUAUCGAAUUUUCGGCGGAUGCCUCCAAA

variants of: B1; assay: self-cleavage kobs at 2500 uM GlcN6P; higher = faster cleavage; RNA array; details: with glucosamine-6-phosphate
Fewer inactive variants are shown than the library holds.
I'd appreciate it if you could supply self-cleavage kobs at 2500 uM GlcN6P values for the items below.
Report the value in s⁻¹ with no unit label.

Could you share which self-cleavage kobs at 2500 uM GlcN6P value was measured for AUAAAAGCGCCAGAACUACAGAAAUGUAGUUCACGAGGAGGAGGUUUAUCGAUUUUUCGGCGGAUGCCUCCAAA [G32C A53U] ?
2.59e-05

Could you share which self-cleavage kobs at 2500 uM GlcN6P value was measured for AUAAAAGCGCCAGAAAUACAGAAAUGUAGUUGACGAGGAGGAGGUUUAUCGAAUAUUCCGCGGAUGUCUGCAAA [C16A U55A G59C C67U C70G] ?
9.74e-05

Could you share which self-cleavage kobs at 2500 uM GlcN6P value was measured for AUAAAAGCGCCAGAACUACAGAAAUGUACUUGACGAGGAGGAGGUUUAUCGAAGUUUCGGCGGAUGCAUCGAAA [G29C U54G C68A C71G] ?
9.33e-05

Could you share which self-cleavage kobs at 2500 uM GlcN6P value was measured for AUAAAAGCGCCAGAACUACAGAAAUGUAGUUGACGAGGAAGAGGUUGAUCGAAUUUUCGGCGGAUGCCUCCAAA [G40A U47G] ?
0.00069

Could you share which self-cleavage kobs at 2500 uM GlcN6P value was measured for AUAAAAGCGCCAGAACUACAGAAAUGUAGUUGACGAGGAGGAGGUUUAUCGGAUUUUCGGCGGAUGCCUACAAA [A52G C70A] ?
6.59e-05

Could you share which self-cleavage kobs at 2500 uM GlcN6P value was measured for AUAAAAGCGCCAGAACUACAGAAAUGUAGUUGACGAGGAGGAGGUUUAUCGAACUUUCGGCGGAGGCCUCCAAA [U54C U65G] ?
0.00207
